- study-system: T1, human OPGbp [143-317] (human, UniProt O14788 143-317)
- T1 construct: also called OPGL
- T1 sequence (looked up): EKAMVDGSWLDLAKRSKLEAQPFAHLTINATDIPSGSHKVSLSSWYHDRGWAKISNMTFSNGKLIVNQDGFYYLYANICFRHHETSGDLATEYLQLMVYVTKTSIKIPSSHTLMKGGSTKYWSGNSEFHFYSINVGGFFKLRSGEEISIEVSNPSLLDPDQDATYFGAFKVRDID
- protocol-notes: SPR (BIAcore), immobilized OPGbp [143-317]
assay-endpoint: koff (s⁻¹)
# output: bare number, implied unit s⁻¹

“AT” antibody variant S97T (heavy chain CDR3) (antibody, name in Kabat numbering, V domains shown, not shown: human IgG1 CH1, hinge, CH2 and CH3) VH: QVQLVQSGAEVRKPGASVKVSCKASGYDFSNYAIHWVRQAPGQRLEWMGWINAGNGNTKFSQKFQGRITVTRDTAASTAYMELRSLRSEDTAVYYCARDSTNMVRGIIIAYYFDYWGQGTLVTVSS VL: EIVMTQSPSSLSASVGDRVTITCRASQSISRYLNWYQLKPGKAPRLLIYGASSLQSGVPSRFSGSGSGAEFTLTISSLQPEDIATYYCQHTRAFGQGTKVEIKR; 0.00116
“AT” antibody variant S97Q (heavy chain CDR3) (antibody, name in Kabat numbering, V domains shown, not shown: human IgG1 CH1, hinge, CH2 and CH3) VH: QVQLVQSGAEVRKPGASVKVSCKASGYDFSNYAIHWVRQAPGQRLEWMGWINAGNGNTKFSQKFQGRITVTRDTAASTAYMELRSLRSEDTAVYYCARDSQNMVRGIIIAYYFDYWGQGTLVTVSS VL: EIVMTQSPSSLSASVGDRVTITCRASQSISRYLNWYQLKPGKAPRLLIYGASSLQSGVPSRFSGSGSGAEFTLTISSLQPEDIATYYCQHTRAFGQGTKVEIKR; 0.00598

Here's the next entry for you.
Measured koff, “AT” antibody variant S97I (heavy chain CDR3) (antibody, name in Kabat numbering, V domains shown, not shown: human IgG1 CH1, hinge, CH2 and CH3) VH: QVQLVQSGAEVRKPGASVKVSCKASGYDFSNYAIHWVRQAPGQRLEWMGWINAGNGNTKFSQKFQGRITVTRDTAASTAYMELRSLRSEDTAVYYCARDSINMVRGIIIAYYFDYWGQGTLVTVSS VL: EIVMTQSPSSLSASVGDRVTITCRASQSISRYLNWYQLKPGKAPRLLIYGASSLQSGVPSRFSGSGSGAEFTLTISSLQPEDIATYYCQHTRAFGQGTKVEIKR : 0.0018
